# tgt: Vasopressin V2 (Rattus norvegicus)
# test-method-notes: Vasopressin V2 agonist effects in normal conscious homozygous Brattleboro rats with central diabetes insipidus
# Type: in vivo
# Parameters: from tissue; host or cells: whole living homozygous Brattleboro rat; the receptor is the animal's own
# condition-label: Brattleboro (BB) rats, 10 mg/kg oral, vs. control, urine collected six hours
measure-name: Urine Volume (% decrease) (%)

smiles-notation	unit-info	Urine Volume (% decrease)
O=C(c1ccc(-c2ccn(C(=O)c3ccc(Cl)cc3Cl)n2)cc1)N1Cc2cccn2Cc2ccccc21	%	66
O=C(c1ccc(-c2ccn(C(=O)c3cccs3)n2)cc1)N1Cc2cccn2Cc2ccccc21	%	76
CC(=O)n1ccc(-c2ccc(C(=O)N3Cc4cccn4Cc4ccccc43)cc2)n1	%	81
Cn1ncnc1-c1ccc(C(=O)N2Cc3cccn3Cc3ccccc32)cc1	%	74
Cc1ccccc1C(=O)n1ccc(-c2ccc(C(=O)N3Cc4cccn4Cc4ccccc43)cc2)n1	%	66

* * *

# tgt: UniProtKB Q00788
# test-method-notes: Vasopressin V2 agonist effects in normal conscious water-loaded rats
# Assay type: in vivo
# Parameters: from tissue; host or cells: whole living Sprague-Dawley rat; the receptor is the animal's own (renal, by own knowledge)
# condition-label: Sprague-Dawley (CD) rats, 10 mg/kg oral, change in osmolality as percent of control
measure-name: Osmolality (% Increase) (%)

compound	Osmolality (% Increase), %
CC(=O)c1ccc(C(=O)N2Cc3cccn3Cc3ccccc32)cc1 [Example 22]	322

1: Cn1ccc(-c2ccc(C(=O)N3Cc4cccn4Cc4ccccc43)c(Cl)c2)n1 [Example 71]
2: Cc1cnn(-c2ccc(C(=O)N3Cc4cccn4Cc4ccccc43)cc2)c1 [Example 60]
Request: Lab log: flag the item ( 1 or 2 ) with the smaller Osmolality (% Increase) figure. Pick one and reply with its label.
Response: 2
(2: 165%, 1: 264%)

a: O=C(c1ccc(-n2cccn2)cc1C(F)(F)F)N1Cc2cccn2Cc2ccccc21 [Example 4]
b: O=C(O)c1ccc(C(=O)N2Cc3cccn3Cc3ccccc32)c(Cl)c1 [Example 78]
Request: Which record shows the lower Osmolality (% Increase): the first, a , or the second, b ? Answer = label.
Response: b
(b: 115%, a: 225%)

1: Cn1cc(-c2ccc(C(=O)N3Cc4cccn4Cc4ccccc43)c(Cl)c2)cn1 [Example 115]
2: Cn1ccc(-c2ccc(C(=O)N3Cc4cccn4Cc4ccccc43)cc2)n1 [Example 25]
3: Cc1ccn(-c2ccc(C(=O)O)c(Cl)c2)n1 [Example 97]
4: Cc1nc(-c2ccc(C(=O)N3Cc4cccn4Cc4ccccc43)c(Cl)c2)n(C)n1 [Example 85]
Request: Order the 4 compounds from highest to lowest Osmolality (% Increase). As an answer, provide the labels arranged in the order called for.
Response: 2, 4, 1, 3

a: Cc1ccc(F)cc1C(=O)n1ccc(-c2ccc(C(=O)N3Cc4cccn4Cc4ccccc43)cc2)n1 [Example 35]
b: O=C(c1ccc(-c2ccn(C(=O)c3ccccc3-c3ccccc3)n2)cc1)N1Cc2cccn2Cc2ccccc21 [Example 40]
c: COc1cc(-n2ccc(C)n2)ccc1C(=O)N1Cc2cccn2Cc2ccccc21 [Example 107]
Request: Arrange the 3 compounds by rising Osmolality (% Increase), starting with the smallest. Please list the labels in the order you were asked to rank them.
Response: c, b, a

* * *

# tgt: Vasopressin V2 (Rattus norvegicus, UniProt Q00788)
# Sequence (Q00788 whole entry): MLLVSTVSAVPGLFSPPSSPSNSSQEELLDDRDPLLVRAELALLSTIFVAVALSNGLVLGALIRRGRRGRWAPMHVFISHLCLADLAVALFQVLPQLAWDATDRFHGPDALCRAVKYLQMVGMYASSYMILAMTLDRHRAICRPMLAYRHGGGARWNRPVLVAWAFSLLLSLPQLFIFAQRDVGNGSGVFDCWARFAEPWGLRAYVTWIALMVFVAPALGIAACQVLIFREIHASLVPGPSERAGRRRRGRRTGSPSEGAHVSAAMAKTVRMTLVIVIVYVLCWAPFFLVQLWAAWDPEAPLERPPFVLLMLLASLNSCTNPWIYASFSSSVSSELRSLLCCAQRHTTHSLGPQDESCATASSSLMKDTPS
# test-method-notes: Vasopressin V2 agonist effects in normal conscious water-loaded rats
# Assay type: in vivo
# Design: from tissue; host or cells: whole living Sprague-Dawley rat; the receptor is the animal's own (renal, by own knowledge)
# condition-label: Sprague-Dawley (CD) rats, 10 mg/kg oral, vs. control, urine collected four hours
measure-name: Urine Volume (% decrease) (%)

Below, each entry is followed by its recorded Urine Volume (% decrease) result.
molecule	unit-info	Urine Volume (% decrease)
O=C(c1ccc(-c2ccn(C(=O)Cc3ccc(Cl)cc3Cl)n2)cc1)N1Cc2cccn2Cc2ccccc21	%	69
O=C(O)c1ccc(C(=O)N2Cc3cccn3Cc3ccccc32)c(Cl)c1	%	21
O=C(c1ccc(-n2cccn2)cc1C(F)(F)F)N1Cc2cccn2Cc2ccccc21	%	57
Cc1ccn(-c2ccc(C(=O)N3Cc4cccn4Cc4ccccc43)c(F)c2)n1	%	69
O=C(c1ccc(-n2cccn2)cc1Cl)N1Cc2cccn2Cc2ccccc21	%	88
Cc1cnn(-c2ccc(C(=O)N3Cc4cccn4Cc4ccccc43)c(Cl)c2)c1	%	70
Cc1ccc(F)cc1C(=O)n1ccc(-c2ccc(C(=O)N3Cc4cccn4Cc4ccccc43)cc2)n1	%	63
Cc1ccnn1-c1ccc(C(=O)N2Cc3cccn3Cc3ccccc32)c(Cl)c1	%	21

I: Cn1nccc1-c1ccc(C(=O)N2Cc3ccnn3Cc3ccccc32)cc1 [Example 120B]
II: COc1cc(-n2ccc(C)n2)ccc1C(=O)N1Cc2cccn2Cc2ccccc21
III: O=C(c1ccc(-c2nnn[nH]2)cc1Cl)N1Cc2cccn2Cc2ccccc21
Request: Reorder the items by Urine Volume (% decrease), least to greatest. // ordering of labels required in reply
Response: III, II, I
(III: 5%, II: 31%, I: 67%)

1: Cn1cc(-c2ccc(C(=O)N3Cc4cccn4Cc4ccccc43)cn2)cn1
2: O=C(c1ccc(-n2cccc2)cc1Cl)N1Cc2cccn2Cc2ccccc21
Request: Which has the higher Urine Volume (% decrease), 1 or 2 ? Respond with the label that goes with your answer.
Response: 1
(1: 77%, 2: 47%)

1: Cn1ccc(-c2ccc(C(=O)N3Cc4cccn4Cc4ccccc43)c(Cl)c2)n1
2: CCn1ccc(-c2ccc(C(=O)N3Cc4cccn4Cc4ccccc43)cc2)n1
3: CC(=O)c1ccc(C(=O)N2Cc3cccn3Cc3ccccc32)c(Cl)c1
Request: Descending sort on Urine Volume (% decrease) required. List the labels in the requested order.
Response: 1, 2, 3
(1: 84%, 2: 54%, 3: 22%)

a: CCCCn1ccc(-c2ccc(C(=O)N3Cc4cccn4Cc4ccccc43)cc2)n1
b: O=C(c1ccc(-c2cc[nH]n2)cc1)N1Cc2cccn2Cc2ccccc21
c: O=C(c1ccc(-n2ccc(C(F)(F)F)n2)cc1)N1Cc2cccn2Cc2ccccc21
Request: Could you please sort these 3 entries by Urine Volume (% decrease) from high to low? // format: requested-order list of labels
Response: a, b, c

The reported numbers originate from patent US6831079B1.
